Answer each item with its documented pKd.
Target: T1, SERF2 (human, UniProt P84101 1-59)
T1 sequence: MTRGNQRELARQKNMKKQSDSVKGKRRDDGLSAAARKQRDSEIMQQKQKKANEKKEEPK
Assay: fluorescence polarization; 100 mM KCl; FP/anisotropy: 20 mM NaPi pH 7.4, 100 mM KCl, 25 C (20-200 nM probe); NMR: same buffer, 4 C
Settings: protein: recombinant; tags: His-SUMO removed; AF488-labeled in some assays; label: 6-FAM; G4
Give bare numbers, as −log10 of the molar value.

- binder: "UGGGGUUGGGGUUGGGGUUGGGGUUGGGGUUGGGGU (structured_RNA) [(UG4U)6]"
  experimental-readout: "pKd"
  experimental-result: 6.14

Now look at this one.
Query: Which pKd is listed for GGGGCCGGGGCCGGGGCCGGGGCC (structured_RNA) [(G4C2)4 RNA] ?
Reply: 6.06
